# measured.on: human TGR1 (NMUR2) (human)
# Sequence (chain, as listed by the source): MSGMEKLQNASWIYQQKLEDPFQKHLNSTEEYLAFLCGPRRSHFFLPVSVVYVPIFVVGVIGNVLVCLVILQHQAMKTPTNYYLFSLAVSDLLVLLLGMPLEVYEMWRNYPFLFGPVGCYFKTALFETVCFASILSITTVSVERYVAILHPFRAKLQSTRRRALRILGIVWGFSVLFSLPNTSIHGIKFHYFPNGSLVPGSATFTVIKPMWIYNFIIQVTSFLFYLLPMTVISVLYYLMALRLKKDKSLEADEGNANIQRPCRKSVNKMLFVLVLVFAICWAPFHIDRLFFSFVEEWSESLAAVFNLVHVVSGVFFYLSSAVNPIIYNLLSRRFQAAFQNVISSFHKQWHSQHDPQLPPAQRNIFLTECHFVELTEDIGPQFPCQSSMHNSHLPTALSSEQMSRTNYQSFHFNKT
# protocol.details: competition with 125I-NMU8, human TGR1/CHO membrane fraction, filter binding
pIC50: −log10 of the molar value. *1 amine or outer side, *2 acyl side, *3 side chain or, on linkers, in order; H or OH if unused. GMBS = cross-linking reagent joining N-terminal amine to thiol PEG, O=C1CC([*:3])C(=O)N1CCCC(=O)[*:2]; Hexanoyl(6-succinimido-3yl) = O=C1CC([*:1])C(=O)N1CCCCCC(=O)[*:2]; AMBz = omega-aminocarboxylic acid linker (structure only drawn); AD = not defined here
measurement.kind: pIC50

Example binders with recorded pIC50:
binder	pIC50
{PEG 30 kDa-GMBS}-YFLFRPRN-NH2 [PEG30k(GMBS)-NMU-8]	8.39
{(PEG20k)2-AD}-YFLFRPRN-NH2 (reading uncertain; also: printed as (PEG20k)2(AD)-NMU-8) [(PEG20k)2(AD)-NMU-8]	6.14
{PEG 30 kDa}-YFLFRPRN-NH2 [PEG30k-NH-NMU-8]	7.96
{PEG 30 kDa-AMBz}-YFLFRPRN-NH2 [PEG30k(AMBz)-NMU-8]	6.96

[I] {PEG 30 kDa-Hexanoyl(6-succinimido-3yl)}-YFLFRPRN-NH2 [PEG30k(EMCS)-NMU-8]
[II] {PEG 30 kDa-AD}-YFLFRPRN-NH2 (reading uncertain; also: printed as PEG30k(AD)-NMU-8) [PEG30k(AD)-NMU-8]
Exercise: compare I and II ; which one has the greater pIC50? Refer to your chosen entry by its label in the reply.
I
